inhibition by entry:
Target: Solute carrier family 2, facilitated glucose transporter member 1 (Homo sapiens) (UniProt P11166)
Sequence (P11166 whole entry): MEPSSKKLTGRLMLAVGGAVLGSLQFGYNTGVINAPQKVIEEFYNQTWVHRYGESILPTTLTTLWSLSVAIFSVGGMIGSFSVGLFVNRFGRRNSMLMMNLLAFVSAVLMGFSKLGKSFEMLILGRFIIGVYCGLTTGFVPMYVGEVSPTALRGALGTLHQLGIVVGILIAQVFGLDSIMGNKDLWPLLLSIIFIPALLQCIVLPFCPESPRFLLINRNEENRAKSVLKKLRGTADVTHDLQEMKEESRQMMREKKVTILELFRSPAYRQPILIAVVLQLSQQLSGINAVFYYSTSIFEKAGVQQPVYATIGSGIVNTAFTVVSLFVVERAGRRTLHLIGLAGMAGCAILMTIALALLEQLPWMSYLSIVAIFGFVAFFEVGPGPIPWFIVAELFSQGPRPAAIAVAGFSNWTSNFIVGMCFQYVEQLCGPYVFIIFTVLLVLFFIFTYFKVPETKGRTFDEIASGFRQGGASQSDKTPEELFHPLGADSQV
Assay: ST_JUDE_LEISH: Cytotoxicity at 2uM final concentration against transgenic Leishmania Mexicana promastigotes LmGLUT1 that are glucose transport deficient and complemented with the human glucose transporter GLUT1. Activity is measured by DNA content using SYBR green in vitro
Format: functional
Readout label: inhibition (%)

>>> numeric_result("CC(C)c1ccc(NC(=O)c2ccc(C(=O)NC3CCN(CC4CCCCC4)CC3)cc2)cc1")
0.94
>>> numeric_result("CCCCCCOc1ccc(C(=O)N[C@H]2CCN(CCCCCNC(=O)/C=C/c3ccc(Cl)c(Cl)c3)C2)cc1")
0.31
>>> numeric_result("COc1cc(CNC[C@@H](O)[C@H](Cc2ccccc2)NC(=O)c2cc(OC(C)C)cc(N3CCCS3(=O)=O)c2)cc(OC)c1")
4.85
>>> numeric_result("Cc1cccc2nc(-c3ccc(-c4ccc(CN5CCC(C(N)=O)CC5)cc4)cc3)[nH]c12")
6.51

###

Molecular target: Hexose transporter 1 (Plasmodium falciparum)
Assay: ST_JUDE_LEISH: Cytotoxicity at 2uM final concentration against transgenic Leishmania Mexicana promastigotes LmPfHT that are glucose transport deficient and complemented with the Plasmodium falciparum hexose transporter. Activity is measured by DNA content using SYBR green in vitro
Format: functional
Readout label: inhibition (%)

>>> numeric_result("O=C(Nc1ccnc(N2CCCN(Cc3cccc(O)c3)CC2)c1)c1ccc(F)cc1")
0.77
>>> numeric_result("COc1ccc(CCNc2nc(SCc3ccccc3Cl)nc3ccccc23)cc1OC")
3.03
>>> numeric_result("COc1cc(Nc2nccc(NCC(O)c3ccc(C(F)(F)F)cc3)n2)cc(OC)c1OC (stereo not given)")
2.84
>>> numeric_result("CC[C@H](C)CNC(=O)c1cccc(-c2ccc(CN3CCC(N4CCCC4)CC3)cc2)n1")
0.54
>>> numeric_result("CCN(CC)Cc1cccc(-c2cc3c(-c4ccc(C(=O)O)c(C(C)C)c4)ccnc3[nH]2)c1OC")
8.43
>>> numeric_result("O=S(=O)(Nc1ccc(CCN2CCCCC2CCN2CCCC2)cc1)c1cccc2cccnc12 (stereo not given)")
1.12
>>> numeric_result("CN1CCC(NCc2ccc(-c3cnc(NCc4ccccc4)nc3)cc2)CC1")
4.31
>>> numeric_result("CCOc1ccc(Nc2cc(C)nc(Nc3ccc(OCC)cc3)n2)cc1")
2.01
>>> numeric_result("O=C(Cc1ccc(NC(=O)c2ccc(O)c(-c3ccc(Cl)c(Cl)c3)c2)cc1)NCCc1ccc(Cl)c(Cl)c1")
2.38
>>> numeric_result("CO/C(=C\\C=C\\c1cc2cc(Cl)c(Cl)cc2[nH]1)C(=O)NCCCNC12CC3CC(CC(C3)C1)C2")
1.55
>>> numeric_result("COc1ccc(CSC2CCCCC23NC(=S)NC3=S)cc1 (stereo not given)")
1.41
>>> numeric_result("O=C(Cc1cccc(O)c1)Nc1ccc(-c2cccc(-c3nc4cc(C(F)(F)F)ccc4[nH]3)c2)cc1")
1.54
>>> numeric_result("O=C(Nc1cccc(CCNCc2ccccc2)c1)Nc1cccc2ccccc12")
11
>>> numeric_result("COc1ccc(NC(=O)Nc2cccc(-c3cccc(-c4nc5cccc(C)c5[nH]4)c3)c2)cc1")
-0.57
>>> numeric_result("O=C(Nc1cccc(-c2ccc(-c3nc4ccccc4[nH]3)s2)c1)c1ccncc1")
9.91
>>> numeric_result("CN(C)CCNC(=O)[C@H](Cc1ccccc1)NC(=O)c1ccc(O)c(-c2ccc(Cl)c(Cl)c2)c1")
1.18
>>> numeric_result("COc1cc(C(=O)N2CCN(C(C)C)CC2)ccc1CN(C)CCCN1CCN(c2cccc(Cl)c2Cl)CC1")
0.33
>>> numeric_result("CC(C)(CNC(=O)C1CCN(CC2CCCCC2)CC1)c1nc(-c2ccc(Cl)c(O)c2)c(-c2ccncc2)[nH]1")
0.23
>>> numeric_result("Cn1cnc2c(SCc3ccc(OCc4ccccc4)cc3)ncnc21")
4.19
>>> numeric_result("CCCCCNc1nc(Nc2ccccc2C)nc2ccccc12")
22.7
